Listing of recorded EC50 by entry.
system: NRK (normal rat kidney epithelial) cells; experiment: Cytotoxicity; format: cell-based; conditions: read-out: EC50 (μM) NRK 19% O2; 19% O2, 24 h exposure, ±SEM
measured-metric: EC50

{"columns": ["compound", "reported"],
 "data": [
  ["CCOC(=O)COc1cccc2c1[n+]([O-])c1cc(C)c(C)cc1[n+]2[O-]", "140 µM"],
  ["Nc1n[n+]([O-])c2ccccc2[n+]1[O-] [Compound 10, 3-amino-1,2,4-benzotriazine 1,4-dioxide]", "> 100 µM"]
]}
